# STUDY_TARGET: UniProt K4FQI5
# METHOD_SUMMARY: Functional biochemical assay to identify treatments for viral infectious disease that targets West Nile NS2B-NS3 protease. Utilizing a direct enzyme activity measurement method, reading the fluorescence intensity is used to characterize the relative potency of inhibitors as IC50.
READOUT: log10(IC50) (log10 of the value in µM)

STRUCTURE_NOTATION: CNC(=O)[C@H](Nc1cccc(CN)c1)c1cc(Cl)cc(NC(=O)OCc2ccccc2)c1
log10(IC50): 0.27
--
STRUCTURE_NOTATION: O=C(Nc1ccc2c(c1)CNC2)c1cc(Cl)cc2c1cnn2C1CCOCC1
log10(IC50): 0.16
--
STRUCTURE_NOTATION: NCc1cccc(CNC(=O)[C@H](NC(=O)OCc2ccccc2)c2ccc(OCc3ccccc3)cc2)c1
log10(IC50): 1.12
--
STRUCTURE_NOTATION: O=C(Nc1ccc2c(c1)CNC2)c1cccc2[nH]ccc12
log10(IC50): 0.94
--
STRUCTURE_NOTATION: O=C(Nc1ccc2c(c1)CNCCO2)c1cc(Cl)cc2[nH]ncc12
log10(IC50): 1.29
--
STRUCTURE_NOTATION: Cc1cccc(-c2nc3c(C(=O)Nc4ccc5c(c4)CNC5)cc(F)cc3[nH]2)c1
log10(IC50): 1.41
--
STRUCTURE_NOTATION: O=C(NCC(F)F)[C@H](Nc1ccc2c(c1)CNC2)c1cc(Br)cc2[nH]ccc12
log10(IC50): -0.25
--
STRUCTURE_NOTATION: CC(C)n1cc2c(C(=O)Nc3ccc4c(c3)CNC4)cc(Cl)cc2n1
log10(IC50): 0.24
--
STRUCTURE_NOTATION: CC(C)NC(=O)[C@H](Nc1ccc2c(c1)CNC2)c1cccc2cn[nH]c12
log10(IC50): 1.15
--
STRUCTURE_NOTATION: CCc1cccc(-c2nc3c(C(=O)Nc4ccc5c(c4)CNC5)cc(F)cc3[nH]2)c1
log10(IC50): 1.28
--
STRUCTURE_NOTATION: N[C@H]1CCc2cc(NC(=O)c3cc(Cl)cc(NC(=O)OCc4ccccc4)c3)ccc21
log10(IC50): 1.65
--
STRUCTURE_NOTATION: Nc1cc(Cl)cc(C(=O)Nc2ccc3c(c2)CNC3)c1N
log10(IC50): 1.52
--
STRUCTURE_NOTATION: NCc1ccc(-c2ncc(OCC3CCNCC3)nc2-c2ccc(-c3ccoc3)cc2)cc1
log10(IC50): 1.99
--
STRUCTURE_NOTATION: O=C(O)c1cc(Cl)ccc1NS(=O)(=O)c1ccc(-c2ccc(F)cc2)cc1
log10(IC50): 1.47
--
STRUCTURE_NOTATION: O=C(NCC1CCOCC1)[C@H](Nc1ccc2c(c1)CNC2)c1cc(Cl)cc2[nH]ncc12
log10(IC50): 0.36
--
STRUCTURE_NOTATION: O=C(Nc1ccc2c(c1)CNC2)c1cc(F)cc(C2=CCCOC2)c1
log10(IC50): 0.98
--
STRUCTURE_NOTATION: CN1C(=O)CC[C@H]1c1nc2c(C(=O)Nc3ccc4c(c3)CNC4)cc(F)cc2[nH]1
log10(IC50): 1.15
--
STRUCTURE_NOTATION: CC(C)c1nn(C)cc1-c1cc(F)cc(C(=O)Nc2ccc3c(c2)CNC3)c1
log10(IC50): 1.08
--
STRUCTURE_NOTATION: O=C(NCC(F)F)[C@H](Nc1ccc2c(c1)CNC2)c1cc(F)cc2[nH]ccc12
log10(IC50): -0.11

* * *

Listed below: IC50 values for each entry.
# STUDY_TARGET: NS3 (West Nile virus)
# METHOD_SUMMARY: Functional biochemical assay to identify treatments for viral infectious disease that targets West Nile NS2B-NS3 protease. Utilizing a direct enzyme activity measurement method, reading the fluorescence intensity is used to characterize the relative potency of inhibitors as IC50.
READOUT: IC50 (µM)

STRUCTURE_NOTATION: CC(C)CNC(=O)c1cc(Cl)ccc1NS(=O)(=O)c1ccc(Oc2ccccc2Cl)cc1
STUDY_TARGET: NS3 (West Nile virus)
READOUT: IC50
UNIT_ABBREVIATION: µM
RELATION_SIGN: >
ASSAY_RESULT: 99.5

STRUCTURE_NOTATION: N#Cc1ccc(-c2nc3c(C(=O)Nc4ccc5c(c4)CNC5)cc(F)cc3[nH]2)cc1
STUDY_TARGET: NS3 (West Nile virus)
READOUT: IC50
UNIT_ABBREVIATION: µM
RELATION_SIGN: =
ASSAY_RESULT: 2.91

STRUCTURE_NOTATION: C#Cc1cc(Cl)cc(C(=O)Nc2ccc3c(c2)CNC3)c1
STUDY_TARGET: NS3 (West Nile virus)
READOUT: IC50
UNIT_ABBREVIATION: µM
RELATION_SIGN: =
ASSAY_RESULT: 58.6

STRUCTURE_NOTATION: CCCCCC(=O)N[C@H](C(=O)Nc1ccc(C(N)=O)cc1)c1ccc(OCc2ccccc2)cc1
STUDY_TARGET: NS3 (West Nile virus)
READOUT: IC50
UNIT_ABBREVIATION: µM
RELATION_SIGN: >
ASSAY_RESULT: 99.5

STRUCTURE_NOTATION: NCCc1cccc(NC(=O)c2cc(Cl)cc3[nH]ncc23)c1
STUDY_TARGET: NS3 (West Nile virus)
READOUT: IC50
UNIT_ABBREVIATION: µM
RELATION_SIGN: =
ASSAY_RESULT: 94.5

STRUCTURE_NOTATION: O=C(NCC(F)F)[C@H](Nc1ccc2c(c1)CNC2)c1cc(Cl)ccc1Sc1ccccc1
STUDY_TARGET: NS3 (West Nile virus)
READOUT: IC50
UNIT_ABBREVIATION: µM
RELATION_SIGN: =
ASSAY_RESULT: 9.51

STRUCTURE_NOTATION: N#Cc1cccc(-c2nc3c(C(=O)Nc4ccc5c(c4)CNC5)cc(Cl)cc3[nH]2)c1
STUDY_TARGET: NS3 (West Nile virus)
READOUT: IC50
UNIT_ABBREVIATION: µM
RELATION_SIGN: =
ASSAY_RESULT: 7.57

STRUCTURE_NOTATION: CCc1cc(Cl)cc(C(=O)Nc2ccc3c(c2)CNC3)c1
STUDY_TARGET: NS3 (West Nile virus)
READOUT: IC50
UNIT_ABBREVIATION: µM
RELATION_SIGN: >
ASSAY_RESULT: 99.5

STRUCTURE_NOTATION: COC(=O)CNC(=O)[C@H](Nc1ccc2c(c1)CNC2)c1cc(Cl)cc(C2CC2)c1
STUDY_TARGET: NS3 (West Nile virus)
READOUT: IC50
UNIT_ABBREVIATION: µM
RELATION_SIGN: =
ASSAY_RESULT: 0.897

STRUCTURE_NOTATION: N#CCCNC(=O)[C@H](Nc1ccc2c(c1)CNC2)c1cc(Cl)cc(C2CC2)c1
STUDY_TARGET: NS3 (West Nile virus)
READOUT: IC50
UNIT_ABBREVIATION: µM
RELATION_SIGN: =
ASSAY_RESULT: 0.43

* * *

Listing of recorded pIC50 by entry.
# STUDY_TARGET: NS3 (West Nile virus)
# Sequence (K4FQI5 whole entry): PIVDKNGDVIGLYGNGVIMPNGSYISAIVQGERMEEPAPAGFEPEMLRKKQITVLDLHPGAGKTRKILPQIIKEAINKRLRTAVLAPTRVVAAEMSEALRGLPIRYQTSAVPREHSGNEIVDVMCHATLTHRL
# METHOD_SUMMARY: Functional biochemical assay to identify treatments for viral infectious disease that targets West Nile NS2B-NS3 protease. Utilizing a direct enzyme activity measurement method, reading the fluorescence intensity is used to characterize the relative potency of inhibitors as IC50.
pIC50: −log10 of the molar value.

STRUCTURE_NOTATION: O=C(NCC(F)F)[C@H](Nc1ccc2c(c1)CNC2)c1cc(Cl)cc2ccoc12
RELATION_SIGN: =
pIC50: 6.73
//
STRUCTURE_NOTATION: O=C(NCCCn1ccnc1)[C@H](Nc1ccc2c(c1)CNC2)c1cc(Cl)cc(C2CC2)c1
RELATION_SIGN: =
pIC50: 6.08
//
STRUCTURE_NOTATION: NCc1cc(/C=C/C(=O)O)cc(NC(=O)c2cc(Cl)cc(NC(=O)OCc3ccccc3)c2)c1
RELATION_SIGN: =
pIC50: 4.07
//
STRUCTURE_NOTATION: N#Cc1cc(Cl)cc(C(=O)Nc2ccc3c(c2)CNC3)c1
RELATION_SIGN: =
pIC50: 4.26
//
STRUCTURE_NOTATION: CCCCCC(=O)N[C@H](C(=O)NCc1cccc(CN)c1)c1ccc(OCc2ccccc2)cc1
RELATION_SIGN: =
pIC50: 4.14
//
STRUCTURE_NOTATION: O=C(Nc1ccc(F)nc1)Oc1ccccc1
RELATION_SIGN: <
pIC50: 4.00
//
STRUCTURE_NOTATION: O=C(NCc1ccc(F)cc1)[C@H](Nc1ccc2c(c1)CNC2)c1cc(Cl)cc2[nH]ncc12
RELATION_SIGN: =
pIC50: 5.96
//
STRUCTURE_NOTATION: NCc1cccc(NC(=O)c2cc(Cl)cc3c2cnn3CC2CC2)c1
RELATION_SIGN: =
pIC50: 4.17
//
STRUCTURE_NOTATION: O=C(Nc1ccc2c(c1)CNC2)c1cc(Cl)cc(C(F)(F)F)n1
RELATION_SIGN: =
pIC50: 4.40
//
STRUCTURE_NOTATION: CNC(=O)[C@H](Nc1cc(CN)cc(-c2nn[nH]n2)c1)c1cc(Cl)cc(C2CC2)c1
RELATION_SIGN: =
pIC50: 6.00
//
STRUCTURE_NOTATION: CS(=O)(=O)NC(=O)c1cc(Cl)ccc1NS(=O)(=O)c1ccc(Oc2ccccc2Cl)cc1
RELATION_SIGN: =
pIC50: 4.13
//
STRUCTURE_NOTATION: O=C(Nc1ccc2c(c1)CNC2)c1cc(F)cc2[nH]nnc12
RELATION_SIGN: =
pIC50: 5.30
//
STRUCTURE_NOTATION: CNC(=O)[C@H](Nc1cc(Cl)cc(NC(=O)OCc2ccccc2)c1)c1cccc(-c2nn[nH]n2)c1
RELATION_SIGN: <
pIC50: 4.00
//
STRUCTURE_NOTATION: O=C(NC[C@H]1CCCO1)[C@H](Nc1ccc2c(c1)CNC2)c1cc(Cl)cc2[nH]ncc12
RELATION_SIGN: =
pIC50: 5.94
//
STRUCTURE_NOTATION: CC1=C(c2cc(NC(=O)c3cc(Cl)cc4[nH]ncc34)cc3c2CNC3)CCC1=O
RELATION_SIGN: =
pIC50: 4.89
//
STRUCTURE_NOTATION: O=C(Nc1ccc2c(c1)CNC2)c1cccc2cn[nH]c12
RELATION_SIGN: =
pIC50: 5.01
//
STRUCTURE_NOTATION: N#Cc1cccc(-c2nc3c(C(=O)Nc4ccc5c(c4)CNC5)cc(F)cc3[nH]2)c1
RELATION_SIGN: =
pIC50: 5.43
//
STRUCTURE_NOTATION: NCc1cccc(NC(=O)c2cc(Br)cc3[nH]ccc23)c1
RELATION_SIGN: <
pIC50: 4.00
//
STRUCTURE_NOTATION: O=C(Nc1ccc2c(c1)CNC2)c1cc(Br)cc2[nH]c([C@H]3CCOC3)nc12
RELATION_SIGN: =
pIC50: 4.03
//
STRUCTURE_NOTATION: O=C(NCC(F)(F)F)c1cc(Cl)c(F)cc1NS(=O)(=O)c1ccc(Oc2ccccc2Cl)cc1
RELATION_SIGN: =
pIC50: 5.03

Origin of the recorded values: ChEMBL document CHEMBL5604061
